- ASSAY OVERVIEW: Rodent pharmacokinetic study
- Type: in vivo, Male Wistar rats
- COND: rat, plasma; intravenous (bolus) 1 mg/kg; male Wistar rats; mean ± S.D, n = 3
Counter-ions that a name gives are not always drawn.
PARAMETER MEASURED: AUC(0-t) (ng·h/mL)

- COMPOUND: "O=C1C[C@H]2CCCN2C(=O)N1C[C@H]1CCCC[C@H]1CN1CCN(c2nsc3ccccc23)CC1 [Example 27, oxalate]"
  OBSERVED VALUE: 360
- COMPOUND: "O=C1C[C@@H]2CCCN2C(=O)N1CCCCN1CCC(c2noc3cc(F)ccc23)CC1"
  OBSERVED VALUE: 226
- COMPOUND: "O=C1C[C@@H]2CCCN2C(=O)N1CCCCN1CCN(c2cccc3sccc23)CC1 [Example 4, oxalate]"
  OBSERVED VALUE: 350
- COMPOUND: "O=C1C[C@@H]2C[C@H](F)CN2C(=O)N1CCCCN1CCN(c2nsc3ccccc23)CC1 [Example 9, oxalate]"
  OBSERVED VALUE: 415
- COMPOUND: "O=C1C[C@@H]2C[C@H]3C[C@H]3N2C(=O)N1CCCCN1CCN(c2nsc3ccccc23)CC1 [Example 11, oxalate]"
  OBSERVED VALUE: 412
- COMPOUND: "O=C1C[C@@H]2CCCN2C(=O)N1CCCCN1CCN(c2nsc3ccccc23)CC1 [Example 2, oxalate]"
  OBSERVED VALUE: 544
- COMPOUND: "O=C1C[C@H]2CCCN2C(=O)N1C[C@H]1CCCC[C@H]1CN1CCC(c2noc3cc(F)ccc23)CC1 [Example 29, oxalate]"
  OBSERVED VALUE: 291

----------
- TARGET OF ASSAY: UniProt P31645
- Sequence (P31645 whole entry): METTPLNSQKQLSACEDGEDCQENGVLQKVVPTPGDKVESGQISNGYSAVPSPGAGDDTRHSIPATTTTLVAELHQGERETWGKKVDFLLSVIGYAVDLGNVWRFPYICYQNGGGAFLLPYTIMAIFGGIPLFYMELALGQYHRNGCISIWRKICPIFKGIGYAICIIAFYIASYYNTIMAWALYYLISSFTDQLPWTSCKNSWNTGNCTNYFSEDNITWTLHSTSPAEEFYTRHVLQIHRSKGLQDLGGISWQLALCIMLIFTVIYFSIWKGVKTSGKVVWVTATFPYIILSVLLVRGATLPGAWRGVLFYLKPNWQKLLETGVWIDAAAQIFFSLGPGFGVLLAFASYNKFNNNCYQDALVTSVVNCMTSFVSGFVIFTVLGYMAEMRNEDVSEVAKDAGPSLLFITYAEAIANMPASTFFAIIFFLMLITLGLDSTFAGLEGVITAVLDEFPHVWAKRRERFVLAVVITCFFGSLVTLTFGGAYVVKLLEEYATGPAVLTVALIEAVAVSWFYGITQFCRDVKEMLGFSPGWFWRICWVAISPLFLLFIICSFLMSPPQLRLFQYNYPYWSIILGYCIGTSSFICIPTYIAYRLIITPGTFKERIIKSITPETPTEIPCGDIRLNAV
- ASSAY OVERVIEW: Determination of Ki at SERT receptor (SPA binding, [3H]-Citalopram)
- COND: HEK293 recombinant cells; [3H]-Citalopram 2 nM; read-out: Ki hSERT
pKi: −log10 of the molar value. Counter-ions that a name gives are not always drawn.
Classification field: enter met for pKi values not below 6, not met for values below it.

- COMPOUND: "COC(=O)N1CCN2C(=O)N(CCCCN3CCN(c4nsc5ccccc45)CC3)C(=O)CC2C1 (stereo not shown) [Example 34, fumarate]"
  CLASS LABEL: "met"
- COMPOUND: "O=C1C[C@@H]2CCCCN2C(=O)N1CCCCN1CCC(c2noc3cc(F)ccc23)CC1"
  CLASS LABEL: "not met"
- COMPOUND: "COc1ccc2[nH]cc(C3CCN(CCCCN4C(=O)C[C@@H]5CCCCN5C4=O)CC3)c2c1"
  CLASS LABEL: "met"
- COMPOUND: "O=C1C[C@@H]2COCCN2C(=O)N1CCCCN1CCN(c2nsc3ccccc23)CC1 [Example 18, oxalate]"
  CLASS LABEL: "not met"
- COMPOUND: "O=C(OCc1ccccc1)N1CCN2C(=O)N(CCCCN3CCN(c4nsc5ccccc45)CC3)C(=O)C[C@@H]2C1 [Example 19]"
  CLASS LABEL: "met"

----------
- TARGET OF ASSAY: cloned human 5-HT2A receptor (Homo sapiens, UniProt P28223)
- Construct: expressed in transfected cells; host or cells: CHO-K1
- Sequence (P28223 whole entry): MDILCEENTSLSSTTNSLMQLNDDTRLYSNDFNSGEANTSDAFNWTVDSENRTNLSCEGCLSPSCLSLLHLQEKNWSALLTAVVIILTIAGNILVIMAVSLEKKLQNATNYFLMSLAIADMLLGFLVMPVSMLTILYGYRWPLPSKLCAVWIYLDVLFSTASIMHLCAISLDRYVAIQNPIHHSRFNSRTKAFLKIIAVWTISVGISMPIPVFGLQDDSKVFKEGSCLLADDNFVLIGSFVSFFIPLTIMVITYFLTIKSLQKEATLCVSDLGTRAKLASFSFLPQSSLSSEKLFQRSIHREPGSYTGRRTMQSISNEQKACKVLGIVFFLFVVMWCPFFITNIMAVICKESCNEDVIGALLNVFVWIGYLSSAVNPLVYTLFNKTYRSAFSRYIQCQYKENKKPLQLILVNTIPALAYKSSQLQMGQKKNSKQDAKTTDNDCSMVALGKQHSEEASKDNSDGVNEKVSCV
- ASSAY OVERVIEW: Determination of Ki at 5-HT2A receptor (radioligand binding, [3H]-Ketanserine)
- COND: CHO-K1 recombinant cells; [3H]-Ketanserine 1.25 nM; read-out: Ki h5-HT2A
Where a name gives a salt, the structure may show the parent alone.
Entries and their Ki

- COMPOUND: "O=C1C[C@H]2CCCN2C(=O)N1C[C@H]1CCCC[C@H]1CN1CCC(c2noc3cc(F)ccc23)CC1 [Example 29, oxalate]"
  Ki, nM: 0.8
- COMPOUND: "O=C1C[C@@H]2CCCN2C(=O)N1CCCN1CCC(c2noc3cc(F)ccc23)CC1 [Example 24]"
  Ki, nM: 7.1
- COMPOUND: "O=C1C[C@@H]2CCCN2C(=O)N1CCCN1CCN(c2nsc3ccccc23)CC1 [Example 23]"
  Ki, nM: 5.3
- COMPOUND: "O=C1C[C@@H]2CCCN2C(=O)N1CCCCN1CCC(c2c[nH]c3ccc(F)cc23)CC1 [Example 7, oxalate]"
  Ki, nM: 49.9
- COMPOUND: "COC(=O)N1CCN2C(=O)N(CCCCN3CCN(c4nsc5ccccc45)CC3)C(=O)CC2C1 (stereo not shown) [Example 34, fumarate]"
  Ki, nM: 0.5
- COMPOUND: "O=C(OCc1ccccc1)N1CCN2C(=O)N(CCCCN3CCC(c4noc5cc(F)ccc45)CC3)C(=O)CC2C1 (stereo not shown) [Example 22, fumarate]"
  Ki, nM: 1.5
- COMPOUND: "O=C1C[C@H]2CCCN2C(=O)N1C[C@H]1CCCC[C@H]1CN1CCN(c2nsc3ccccc23)CC1 [Example 27, oxalate]"
  Ki, nM: 2
- COMPOUND: "O=C1C[C@@H]2CCCCN2C(=O)N1CCCCN1CCN(c2nsc3ccccc23)CC1 [Example 12]"
  Ki, nM: 0.6
- COMPOUND: "COC(=O)N1CCN2C(=O)N(CCCCN3CCC(c4noc5cc(F)ccc45)CC3)C(=O)C[C@@H]2C1 [Example 36, fumarate]"
  Ki, nM: 2.2
- COMPOUND: "O=C1C[C@@H]2CCCN2C(=O)N1CCCCN1CCC(c2noc3ccccc23)CC1 [Example 42, oxalate]"
  Ki, nM: 11.6
- COMPOUND: "O=C(OCc1ccccc1)N1CCN2C(=O)N(CCCCN3CCN(c4nsc5ccccc45)CC3)C(=O)C[C@@H]2C1 [Example 19]"
  Ki, nM: 0.8
- COMPOUND: "CC(=O)N1CCN2C(=O)N(CCCCN3CCN(c4nsc5ccccc45)CC3)C(=O)C[C@@H]2C1 [Example 37]"
  Ki, nM: 1.5
- COMPOUND: "COc1ccc2[nH]cc(C3CCN(CCCCN4C(=O)C[C@@H]5CCCCN5C4=O)CC3)c2c1 [Example 16]"
  Ki, nM: 1210
